- ASSAY_TEXT: Single-dose pharmacokinetics of pantoprazole delayed-release tablet, study 1
- Format: in vivo, human
- CONDITION_PARAMETERS: human, plasma, po, 40 mg
MEASUREMENT_NAME: half-life (min)
Quick note: give the figure in min, leave out the unit.

Q: For the compound shown here, COc1ccnc(C[S+]([O-])c2nc3ccc(OC(F)F)cc3[nH]2)c1OC (stereo not shown) , give the reported half-life.
Ans: 42

====

- ASSAY_TEXT: Single-dose pharmacokinetics of pantoprazole delayed-release tablet, study 2
- Assay type: in vivo, human
- CONDITION_PARAMETERS: human, plasma, po, 40 mg
MEASUREMENT_NAME: half-life (min)
Quick note: give the figure in min, leave out the unit.

Q: For the compound shown here, COc1ccnc(C[S+]([O-])c2nc3ccc(OC(F)F)cc3[nH]2)c1OC (stereo not shown) [pantoprazole] , give the reported half-life.
Ans: 54
